Data origin, for the record: paper PMC4325551

Below, each of the molecules is paired with its reported Inhibitory activity on 5α-reductase (% of control) value.
# TARGET_OF_ASSAY: rat liver microsomal 5α-reductase (Rattus norvegicus)
# Construct: The reaction was started with the addition of liver microsomes (20 μg protein); from tissue; host or cells: liver microsomes of male Sprague–Dawley rats
# Sequence (P24008 whole entry): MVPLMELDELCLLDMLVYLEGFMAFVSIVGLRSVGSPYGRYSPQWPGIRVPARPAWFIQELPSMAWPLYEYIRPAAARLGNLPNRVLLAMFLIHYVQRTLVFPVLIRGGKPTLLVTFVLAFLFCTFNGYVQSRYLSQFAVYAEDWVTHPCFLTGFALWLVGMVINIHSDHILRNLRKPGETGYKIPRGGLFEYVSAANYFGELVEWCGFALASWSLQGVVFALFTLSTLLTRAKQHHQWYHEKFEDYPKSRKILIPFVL
# METHOD_DESCRIPTION: 5α-reductase assay using rat liver microsomes (testosterone metabolism, HPLC and TLC)
# Assay type: biochemical
# SETUP_CONDITIONS: test sample 10 μmol/L; testosterone 3.5 μmol/L, 30 min, rat liver microsomes 40 μg/mL, HPLC; mean ± SEM, N = 3
# Procedure: Rat liver microsomes were prepared by the method of Lee et al.. Male Sprague–Dawley rats (body weight, 300 to 320 g; Clea Japan, Tokyo, Japan) were fasted overnight to decrease the concentration of liver glycogen and then sacrificed. […] The residue was dissolved in acetonitrile and analyzed using the HPLC system. […]
PROPERTY_MEASURED: Inhibitory activity on 5α-reductase (% of control)

>  <MOLECULE>
O=C(OC[C@H]1OC(OC(=O)c2cc(O)c(O)c(O)c2)[C@H](OC(=O)c2cc(O)c(O)c(O)c2)[C@@H](OC(=O)c2cc(O)c(O)c(O)c2)[C@@H]1O)c1cc(O)c(O)c(O)c1 (stereo partly drawn) [Tetragalloyl glucose, 1,2,3,6-tetra-O-galloyl glucose]

>  <RESULT>
63.2 ± 3.0 % of control

$$$$
>  <MOLECULE>
O=C(O[C@@H]1O[C@@H]2COC(=O)c3cc(O)c(O)c(O)c3-c3c(cc(O)c(O)c3O)C(=O)O[C@H]2[C@H](OC(=O)c2cc(O)c(O)c(O)c2)[C@H]1OC(=O)c1cc(O)c(O)c(O)c1)c1cc(O)c(O)c(O)c1 [Eugeniin, eugeniin]

>  <RESULT>
62.5 ± 0.6 % of control

$$$$
>  <MOLECULE>
O=C1OC[C@H]2OC(=O)c3cc(O)c(O)c(O)c3-c3c(O)c(O)c(O)c4c3C(=O)O[C@H]([C@H]3OC(=O)c5c-4c(O)c(O)c(O)c5[C@H]3O)[C@@H]2OC(=O)c2cc(O)c(O)c(O)c2-c2c1cc(O)c(O)c2O [Castalagin, castalagin]

>  <RESULT>
70.7 ± 3.2 % of control

$$$$
>  <MOLECULE>
O=C(O[C@@H]1Cc2c(O)cc(O)cc2O[C@@H]1c1cc(O)c(O)c(O)c1)c1cc(O)c(O)c(O)c1 [(−)-Epigallocatechin gallate, (−)-epigallocatechin gallate]

>  <RESULT>
5.3 ± 0.3 % of control

$$$$
>  <MOLECULE>
O=C(O[C@H]1[C@@H]2OC(=O)c3cc(O)c(O)c(O)c3-c3c(cc(O)c(O)c3O)C(=O)OC[C@H]2OC(O)[C@@H]1OC(=O)c1cc(O)c(O)c(O)c1)c1cc(O)c(O)c(O)c1 (stereo partly drawn) [1-Desgalloyl eugeniin, 1-desgalloyl eugeniin]

>  <RESULT>
52.5 ± 2.4 % of control

$$$$
>  <MOLECULE>
O=C(O[C@@H]1COC(=O)c2cc(O)c(O)c(O)c2-c2c(cc(O)c(O)c2O)C(=O)O[C@H]1[C@@H]1OC(=O)c2cc(O)c(O)c(O)c2-c2c(O)c(O)c(O)c3c2C(=O)O[C@H]1[C@@H]3O)c1cc(O)c(O)c(O)c1 [Casuarinin, casuarinin]

>  <RESULT>
59.0 ± 2.0 % of control

$$$$
